Below, each of the compounds is paired with its reported %Inh value.
System: RIPK5;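 further: KINOMEscan kinase panel screen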
Settings: concentration: 1 μM,replicates: in singlicate; n = 1
The reply should be a number in %, with the unit left off.

Here are 3 compounds together with their reported answers.
{"COMPOUND": "Nc1nc(Nc2ccccc2)cc(-c2ccc3c(N)n[nH]c3c2)n1 [GSK2225749]", "%Inh (%)": 0}
{"COMPOUND": "C[C@@H]1CCN(C(=O)CC#N)C[C@@H]1N(C)c1ncnc2[nH]ccc12", "%Inh (%)": 0}
{"COMPOUND": "O=C(NCCCN1CCOC1=O)c1cnc(NCc2cc(Cl)ccc2Cl)nc1NC1CCCC1", "%Inh (%)": 0}

Exercise: Supply measured %Inh of `Cc1cc(C(=O)Nc2ccc(Oc3ccc4nc(NC(=O)C5CC5)cn4n3)cc2)nn1-c1ccccc1` in your reply.
Key: 0

Exercise: Read the entry Cl.Oc1cc(-c2nc(-c3ccccc3)[nH]c2-c2ccncc2)ccc1Cl [SB-386023] and write its reported %Inh.
Key: 21

Exercise: Quickly give me recorded %Inh for Cl.Cl.NC[C@H](CC1CCCCC1)NC(=O)c1cc(Br)c(-c2ccnc3[nH]ccc23)s1 [GSK1581427]
Key: 5

Exercise: Supply recorded %Inh for Cc1ccc2c(-c3ccncc3)c(-c3ccc(F)cc3)nn2c1.Cl [GW461484] here.
Key: 0

Exercise: Tell me %Inh reported for Cl.Cl.Nc1nc(-c2ccc3c(N)n[nH]c3c2)cc(N2CCCC(NC(=O)c3ccccc3)C2)n1 (stereo not drawn) [GSK2286775]
Key: 5

Exercise: Given CN(C)CCOc1ccc(-c2cc(-c3c[nH]nc3-c3ccccn3)ccn2)cc1 [GW835314] , respond with its %Inh.
Key: 14

Exercise: // Input: `CC(C)N1C(=O)Cc2cc(Nc3ncc(C(F)(F)F)c(NCc4cccc(S(C)(=O)=O)c4)n3)ccc21` . Output its %Inh only.
Key: 43

Exercise: Given Cl.Cl.NC[C@H](Cc1ccc(C(F)(F)F)cc1)NC(=O)c1cc(Br)c(-c2ccnc3[nH]ccc23)s1 [GSK1487252] , respond with its %Inh.
Key: 0

Exercise: Note %Inh for the compound shown: Cc1ccc(-n2nc(C(C)(C)C)cc2NC(=O)Nc2ccc(OCCN3CCOCC3)c3ccccc23)cc1 [GW839464]
Key: 0

Exercise: Look up and state reported %Inh for C=CC(=O)Nc1cc2c(Nc3ccc(F)c(Cl)c3)ncnc2cc1OCCCN1CCOCC1 [GW781483]
Key: 4

Exercise: Fill in %Inh for record NC(=O)c1cc(-c2ccccc2)cc2c(C3CCNCC3)c[nH]c12 [GSK301362]
Key: 0

Exercise: Hello, please tell me recorded %Inh for this one: COc1ccc(C[C@@H](CN)NC(=O)c2cc(Br)c(-c3ccnc4[nH]ccc34)s2)cc1.Cl.Cl [GSK1389063]
Key: 28

Exercise: Annotate the compound CC(C)Nc1cc(-c2ccc3c(N)n[nH]c3c2)nc(N)n1 [GSK2221681] with its measured %Inh.
Key: 0

Exercise: Note %Inh for the compound shown: CN(C)CC(O)COc1ccc(Nc2nccc(-c3cnn4nc(N5CCOCC5)ccc34)n2)cc1 (stereo not drawn) [GW767488]
Key: 65

Exercise: Consider the compound `C[C@H]1Oc2cc(cnc2N)-c2c(nn(C)c2C#N)CN(C)C(=O)c2ccc(F)cc21` and give its recorded %Inh.
Key: 89

Reference source for all entries: paper PMC5540273
